The entries below come with measured T/C values attached.
- Tested on: L1210 leukemia ip in BDF1 mice, survival T/C
- experiment.notes: NCI In Vivo Anticancer Drug Screen. Data for tumor model L1210 Leukemia (intraperitoneal) in B6D2F1 (BDF1) mice
- condition.info: endpoint: mean survival time; dose: 400.0 mg/kg/injection; schedule: Q01DX001 (ip); vehicle: saline; higher = longer survival
Inconclusive results and toxic doses are left out.
outcome.measure: T/C

# molecule, result
records = [
    ("O=C(CCl)c1ccc(Oc2ccc(C(=O)CCl)cc2)cc1", "105 % of control"),
    ("NNCCC(=O)O", "115 % of control"),
    ("CN(C)P(N(C)C)N(C)C", "101 % of control"),
    ("COB(OC)OC", "95 % of control"),
    ("O=C1C2=C(c3ccccc31)C1c3ccccc3C(=O)C1(c1ccccc1)c1ccccc12 (configuration not stated)", "92 % of control"),
    ("CCOc1ccc(N=C=S)cc1", "102 % of control"),
    ("CCCCOC(=O)CCCCC(=O)OC(C)C(=O)OCCCC (configuration not stated)", "89 % of control"),
]

----------
- Test system: L1210 leukemia ip in BDF1 mice, survival T/C
- experiment.notes: NCI In Vivo Anticancer Drug Screen. Data for tumor model L1210 Leukemia (intraperitoneal) in B6D2F1 (BDF1) mice
- condition.info: endpoint: mean survival time; dose: 200.0 mg/kg/injection; schedule: Q04DX003 (ip); vehicle: saline with Tween-80; higher = longer survival
Inconclusive results and toxic doses are left out.
The entries below come with measured T/C values attached.
outcome.measure: T/C

# compound, outcome.measure, result
data = [
    ("COc1cc(C=C(C(C)=O)C(C)=O)ccc1O", "T/C", "109 % of control"),
    ("CC(C)(C)c1ccc(OS(=O)(=O)c2cccc([N+](=O)[O-])c2)cc1", "T/C", "99 % of control"),
    ("COc1ccc(-n2c(C)csc2=S)cc1", "T/C", "97 % of control"),
    ("CC(=O)OCC1OC(OC2C(COC(C)=O)OC(Sc3ccccc3)C(OC(C)=O)C2OC(C)=O)C(OC(C)=O)C(OC(C)=O)C1OC(C)=O (stereo unspecified)", "T/C", "91 % of control"),
    ("COc1ccc(S(=O)(=O)F)cc1C(=O)O", "T/C", "97 % of control"),
    ("O=C(O)/C(=C\\c1ccccc1)c1ccccc1", "T/C", "94 % of control"),
]

----------
The entries below come with measured T/C values attached.
- Test system: L1210 leukemia ip in BDF1 mice, survival T/C
- experiment.notes: NCI In Vivo Anticancer Drug Screen. Data for tumor model L1210 Leukemia (intraperitoneal) in B6D2F1 (BDF1) mice
- condition.info: endpoint: mean survival time; dose: 200.0 mg/kg/injection; schedule: Q01DX009 (ip); vehicle: Klucel (hydroxypropylcellulose) (HPC); higher = longer survival
Inconclusive results and toxic doses are left out.
outcome.measure: T/C

# molecule, tested.target, result
rows = [
    ("COc1cccc(NC(=O)NCCN(C)c2ccccc2)c1", "L1210 leukemia ip in BDF1 mice, survival T/C", "88 % of control"),
    ("CCN(CC)c1ccc(N=Nc2cc(Cl)ccc2Cl)c(NC(=O)CSC(C)=O)c1", "L1210 leukemia ip in BDF1 mice, survival T/C", "101 % of control"),
    ("COc1ccc([N+](=O)[O-])cc1NC(=O)Nc1ccc(S(N)(=O)=O)cc1", "L1210 leukemia ip in BDF1 mice, survival T/C", "92 % of control"),
    ("CCOC(=O)C1CCCCC1=O (centres undefined)", "L1210 leukemia ip in BDF1 mice, survival T/C", "97 % of control"),
    ("CN(C)S(=O)(=O)c1ccc(NC(=O)C(Cl)(Cl)Cl)cc1", "L1210 leukemia ip in BDF1 mice, survival T/C", "92 % of control"),
    ("CN(Cc1ccccc1Cl)C(=S)NC1CCCCC1", "L1210 leukemia ip in BDF1 mice, survival T/C", "93 % of control"),
    ("c1ccc(C(c2ccccc2)[Si](c2ccccc2)(c2ccccc2)C(c2ccccc2)c2ccccc2)cc1", "L1210 leukemia ip in BDF1 mice, survival T/C", "88 % of control"),
    ("CCCCC(=O)c1cc(OC)cc(OC)c1", "L1210 leukemia ip in BDF1 mice, survival T/C", "96 % of control"),
    ("COc1ccc(Cl)cc1NC(=O)C(Br)C(Br)c1ccccc1 (centres undefined)", "L1210 leukemia ip in BDF1 mice, survival T/C", "97 % of control"),
    ("COc1cc(N=O)ccc1O", "L1210 leukemia ip in BDF1 mice, survival T/C", "100 % of control"),
    ("NS(=O)(=O)c1ccc(NC(=O)Nc2ccccc2)cc1", "L1210 leukemia ip in BDF1 mice, survival T/C", "97 % of control"),
    ("IC1CCC(I)C2CCC1O2 (centres undefined) (tested in a mixture with another compound)", "L1210 leukemia ip in BDF1 mice, survival T/C", "104 % of control"),
    ("NC(=O)c1ccccc1C(N)=O", "L1210 leukemia ip in BDF1 mice, survival T/C", "98 % of control"),
    ("CCCCC(CC)COC(=O)/C=C/C(=O)OCC(CC)CCCC (centres undefined)", "L1210 leukemia ip in BDF1 mice, survival T/C", "107 % of control"),
    ("S=c1[nH]nc(Nc2ccccc2Cl)s1", "L1210 leukemia ip in BDF1 mice, survival T/C", "98 % of control"),
    ("Cc1cc2c(-c3ccccc3)nc3ccccc3n2c1Cl", "L1210 leukemia ip in BDF1 mice, survival T/C", "103 % of control"),
    ("CCOc1ccccc1NC(=O)COc1ccc(Cl)cc1", "L1210 leukemia ip in BDF1 mice, survival T/C", "103 % of control"),
    ("Cc1ccc(N2C=Nc3ccc(C)cc3C2)cc1", "L1210 leukemia ip in BDF1 mice, survival T/C", "104 % of control"),
    ("CCOC(=O)C(Cc1c[nH]c2ccccc12)(NC=O)C(=O)OCC", "L1210 leukemia ip in BDF1 mice, survival T/C", "100 % of control"),
]
